# System: CAKI-1 renal
# Experiment description: NCI tumour cell line growth inhibition, 48 h
Measured metric: TGI

[[record]]
compound = "N/C(=N/S(=O)(=O)c1cc(C(=O)Nc2ccc(F)cc2)c(Cl)cc1SCc1ccccc1)Nc1ccccc1O"
data_value = "> 100 µM"

[[record]]
compound = "CC(=O)OCC1OC(n2c(O)c(N=NC(N)=S)c3ccc([N+](=O)[O-])cc32)C(OC(C)=O)C1OC(C)=O (centres undefined)"
data_value = "> 100 µM"

[[record]]
compound = "O=C(NCc1ccccc1)C1C(=O)C(=O)N(Cc2ccccc2)C1=O (centres undefined)"
data_value = "> 100 µM"

[[record]]
compound = "c1ccc(COC[C@H]2C3OCC([C@H](OCc4ccccc4)[C@H]3OCc3ccccc3)N2Cc2ccccc2)cc1 (some centres undefined)"
data_value = "> 100 µM"

